assay_info: Thermogravimetric analysis
Type: physicochemical
condition_parameters: TGA onset, nitrogen atmosphere, 10 °C.min^-1
# Temperature of decomposition (Td) annotations
endpoint_label: Temperature of decomposition (Td)

| compound | endpoint_label | value |
| --- | --- | --- |
| C[N+](C)(C)CCO.C[N+](C)(C)CCO.O=c1oc2c(O)c([O-])cc3c(=O)oc4c(O)c([O-])cc1c4c23 [[Chol]2[Ell]] | Temperature of decomposition (Td) | 265 ºC |
| COc1cc(C(=O)[O-])cc(OC)c1O.C[N+](C)(C)CCO [[Chol][Syr]] | Temperature of decomposition (Td) | 178.9 ºC |
| C[N+](C)(C)CCO.O=C([O-])c1ccccc1O [[Chol][Sal], reference compound] | Temperature of decomposition (Td) | 226.0 ºC |
| O=C(O)c1cc(O)c(O)c(O)c1 [gallic acid, 3,4,5-trihydroxybenzoic acid, reference compound] | Temperature of decomposition (Td) | 262.5 ºC |
